system tested: T1, Sgf29 Y238F variant, residues 115-293 (human, UniProt Q96ES7 115-293, Y238F)
T1 construct: source: E. coli Rosetta BL21 DE3 PlysS, purified (Ni-NTA, TEV cleavage, SEC Superdex 75)
T1 sequence (looked up): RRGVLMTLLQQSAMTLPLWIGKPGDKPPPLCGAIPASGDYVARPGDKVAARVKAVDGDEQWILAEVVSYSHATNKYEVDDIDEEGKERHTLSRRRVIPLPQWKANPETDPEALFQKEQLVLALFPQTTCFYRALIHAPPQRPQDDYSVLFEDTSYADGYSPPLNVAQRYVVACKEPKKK
test summary: ITC; peptide (generally 1.2 mM) titrated to protein (100 uM); for variants of low affinity 2.4 mM peptide to 200 uM protein; 25 mM TRIS pH 8.0, 50 mM NaCl, 1 mM DTT; one-site model
applied conditions: both partners purified
No end group written: not given here. Me3 = trimethyl (on lysine, trimethyllysine)
metric name: Kd (µM)
One number for each entry, in µM.

Input: Endpoint output: Kd of ARTK(Me3)QTARKS-OH (histone H3 N-terminal tail, 10-mer, K4 trimethylated; also called native 10-mer peptide; source: synthetic peptide (manual Fmoc solid-phase synthesis, preparative HPLC)) [10-mer histone 3 peptide H3K4me3 (ARTKme3QTARKS)] . Value?
Output: 3.5
